Data provenance: PubChem BioAssay (NCI)

Tested on: SW-620 colon
Assay: NCI tumour cell line growth inhibition, 48 h; in the data active = GI50 below about 0.43 µM; inactive = the rest
Classes used: True for active, False for inactive

{"Molecule": "COc1cc2c(cc1OCCCCCOc1ccc(-c3nc4ccccc4s3)cc1)N=C[C@@H]1CCCN1C2=O", "Class": "False"}
{"Molecule": "Cc1ccc(NC(=O)c2ccoc2)cc1-c1ccc(C(=O)NCC2CC2)cc1", "Class": "False"}
{"Molecule": "COC1C(OC(=O)/C=C/C=C/C=C/C=C/C(=O)O)CCC2(CO2)C1C1(C)OC1CC=C(C)C (stereo not drawn)", "Class": "True"}
{"Molecule": "c1ccc2[nH]c(-c3ccc(Nc4nc(N5CCCC5)nc5[nH]ncc45)cc3)nc2c1", "Class": "True"}
{"Molecule": "COc1ccc(-c2nc(-c3nc4cc(Cl)c(Cl)cc4[nH]3)c3ccccn23)cc1", "Class": "False"}
{"Molecule": "CN1CCN(c2ccc3nc(-c4[nH]ncc4Nc4ncnc5[nH]ccc45)[nH]c3c2)CC1", "Class": "True"}
{"Molecule": "COc1cccc2c1C(=O)c1c(O)c3c(c(O)c1C2=O)C[C@@](O)(/C(C)=N/NC(=O)c1cccc([N+](=O)[O-])c1)C[C@@H]3OC1CC(N)C(O)C(C)O1 (stereo partly drawn)", "Class": "True"}
{"Molecule": "CN(C)CCN1C(=O)c2cccc3cc(N)cc(c23)C1=O", "Class": "False"}
{"Molecule": "O=C(Nc1ccccc1/C=C/c1n[nH]c2ccccc12)c1ccccc1", "Class": "False"}
{"Molecule": "N#Cc1cnc2ccc(NCc3cnc[nH]3)cc2c1Nc1ccc(F)c(Cl)c1", "Class": "False"}
{"Molecule": "CCCCCCCCCCCC(c1ccccc1)[N+](C)(C)C (stereo not drawn)", "Class": "False"}
{"Molecule": "[O-]c1ccccc1C=NCCN=Cc1ccccc1[O-].[O]=[U+2]=[O]", "Class": "False"}
{"Molecule": "Nc1nc(N)c2cc(S(=O)(=O)c3cccc(C(F)(F)F)c3)ccc2n1", "Class": "False"}
